These entries and their values trace back to patent US11168073B2.

- tested system: recombinant human MAO-B (monoamine oxidase-B) (Homo sapiens, UniProt P27338)
- Construct: purchased Sigma-Aldrich
- Sequence (P27338 1-520): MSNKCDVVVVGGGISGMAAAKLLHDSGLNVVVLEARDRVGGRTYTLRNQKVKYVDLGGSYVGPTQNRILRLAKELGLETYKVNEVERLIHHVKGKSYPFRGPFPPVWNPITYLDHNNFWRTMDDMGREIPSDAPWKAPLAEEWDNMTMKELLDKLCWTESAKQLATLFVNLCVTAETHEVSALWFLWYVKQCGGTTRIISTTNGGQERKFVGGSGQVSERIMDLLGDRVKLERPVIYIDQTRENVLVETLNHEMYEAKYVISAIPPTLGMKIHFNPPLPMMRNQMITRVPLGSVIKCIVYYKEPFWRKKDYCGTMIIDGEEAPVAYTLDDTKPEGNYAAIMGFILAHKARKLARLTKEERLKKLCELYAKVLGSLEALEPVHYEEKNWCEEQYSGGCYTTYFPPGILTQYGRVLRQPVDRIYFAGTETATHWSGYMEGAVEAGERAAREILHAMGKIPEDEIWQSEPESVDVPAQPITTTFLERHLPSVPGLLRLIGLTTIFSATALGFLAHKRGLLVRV
- method description: Activity evaluation on recombinant human MAO-B (Amplex Red/HRP-coupled assay, 1 mM benzylamine substrate)
- Type: biochemical
- details: 1 mM benzylamine substrate, read-out: Inhibitory Activity (IC50, nM) MAO-B
- Experimental: The compounds according to the present technology were evaluated in terms of activity on recombinant human VAP-1 (R&D systems) by measuring the level of hydrogen peroxide in horseradish peroxidase (HRP)-coupled reaction using Amplex Red Hydrogen Peroxide Assay Kit (Molecular Probes, Invitrogen, USA). […] The inhibitory effect of the compounds was measured as a decrease (%) in the signal rate as compared to the control group without any inhibitor (only diluted DMSO). […]
Where a name gives a salt, the structure may show the parent alone.
Listing of recorded IC50 by entry.
measured quantity: IC50 (nM)

• CCn1cc(-c2cccc(Cn3cnn(CC(CN)=C(F)F)c3=O)c2)ccc1=O [Example 277, Trifluoroacetate] = 68600
• Cc1cc(C#Cc2cnc3c(c2)NCCO3)cnc1-n1cnn(CC(CN)=C(F)F)c1=O [Example 244, ditrifluoroacetate] = 37000
• Cc1cc(-c2ccc(S(=O)(=O)N(C)C)cc2)cnc1-n1cnn(CC(CN)=C(F)F)c1=O [Example 238, trifluoroacetate] = 1800
• Cc1cc(-c2cnn(C(F)F)c2)cnc1-n1cnn(CC(CN)=C(F)F)c1=O [Example 251, Trifluoroacetate] = 18000
• Cc1cc(C#Cc2ccc(N3CCOCC3)nc2)cnc1-n1cnn(CC(CN)=C(F)F)c1=O [Example 242, Trifluoroacetate] = 29000
• Cc1cc(-c2ccc3c(c2)NC(=O)CO3)cnc1-n1cnn(CC(CN)=C(F)F)c1=O [Example 221, Trifluoroacetate] = 9000
• CCn1cc(-c2cccc(-c3csc(Cn4cnn(CC(CN)=C(F)F)c4=O)c3)c2)cn1 [Example 289, Trifluoroacetate] = 12000

====

- tested system: recombinant human MAO-B (monoamine oxidase-B) (Homo sapiens)
- Construct: purchased Sigma-Aldrich
- Sequence (P27338 1-520): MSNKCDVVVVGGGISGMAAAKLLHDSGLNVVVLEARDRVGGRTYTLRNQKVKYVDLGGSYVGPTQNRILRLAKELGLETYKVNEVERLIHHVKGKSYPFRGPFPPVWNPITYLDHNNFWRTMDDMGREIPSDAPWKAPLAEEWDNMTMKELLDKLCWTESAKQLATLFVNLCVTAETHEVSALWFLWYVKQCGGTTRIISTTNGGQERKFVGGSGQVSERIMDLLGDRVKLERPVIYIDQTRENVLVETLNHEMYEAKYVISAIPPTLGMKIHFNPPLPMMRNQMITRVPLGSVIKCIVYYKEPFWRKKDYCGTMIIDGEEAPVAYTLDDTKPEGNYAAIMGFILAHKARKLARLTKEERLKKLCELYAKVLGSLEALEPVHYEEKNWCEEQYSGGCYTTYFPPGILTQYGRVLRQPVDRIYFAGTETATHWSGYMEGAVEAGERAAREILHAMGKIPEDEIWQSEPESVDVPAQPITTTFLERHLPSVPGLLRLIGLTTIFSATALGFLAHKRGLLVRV
- method description: Activity evaluation on recombinant human MAO-B (Amplex Red/HRP-coupled assay, 1 mM benzylamine substrate)
- Type: biochemical
- details: 1 mM benzylamine, read-out: Inhibitory Activity (IC50, nM) MAO-B
Structures can show the parent of a compound that is named as a salt.
measured quantity: IC50 (nM)

• CS(=O)(=O)c1ccc(-c2ccc(-n3cnn(CC(CN)=C(F)F)c3=O)c(F)c2)cc1 [Example 31, Trifluoroacetate] = 870
• Cc1cc(-n2cnn(CC(CN)=C(F)F)c2=O)cnc1-c1cc(C)c2c(c1)CCC(=O)N2 [Example 80, Trifluoroacetate] = 5300
• NCC(Cn1ncn(Cc2cc(-c3ccc4c(c3)OCO4)cs2)c1=O)=C(F)F [Example 150, Trifluoroacetate] = 2800
